- target-system: UniProt:P03372
- Sequence (P03372 1-595): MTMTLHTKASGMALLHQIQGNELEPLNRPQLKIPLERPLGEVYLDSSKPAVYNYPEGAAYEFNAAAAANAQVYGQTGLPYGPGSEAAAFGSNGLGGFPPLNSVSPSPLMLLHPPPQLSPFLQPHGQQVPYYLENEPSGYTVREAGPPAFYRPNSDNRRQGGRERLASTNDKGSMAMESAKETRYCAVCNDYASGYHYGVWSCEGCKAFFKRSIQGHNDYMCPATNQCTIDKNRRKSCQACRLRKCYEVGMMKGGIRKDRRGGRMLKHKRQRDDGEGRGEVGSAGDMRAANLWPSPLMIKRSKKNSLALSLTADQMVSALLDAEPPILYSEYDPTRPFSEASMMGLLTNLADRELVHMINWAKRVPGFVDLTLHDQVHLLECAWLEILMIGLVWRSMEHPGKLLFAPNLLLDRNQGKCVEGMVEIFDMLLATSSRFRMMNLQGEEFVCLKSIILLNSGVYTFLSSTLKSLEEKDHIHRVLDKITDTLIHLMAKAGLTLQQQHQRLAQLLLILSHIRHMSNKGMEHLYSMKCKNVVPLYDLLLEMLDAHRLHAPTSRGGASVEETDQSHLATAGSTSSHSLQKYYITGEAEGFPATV
- protocol: Creatine kinase expression (ER/CK) in Ad5-wt-hERα infected HAECT-1 cells
pEC50: −log10 of the molar value.
Is pEC50 at least 7? Then Y. If not, N.

INSERT INTO measurements (structure_as_smiles, assigned_class) VALUES
  ('Oc1ccc(-c2n[nH]c3c(F)cccc23)cc1', 'N'),
  ('CCCn1nc2c(C)cccc2c1-c1ccc(O)cc1', 'Y'),
  ('Cn1nc(-c2ccc(O)cc2)c2cc(C(F)(F)F)ccc21', 'N'),
  ('Oc1ccc(-c2nn(-c3ccccc3Cl)c3cc(O)ccc23)c(O)c1', 'N'),
  ('CC(C)n1nc(-c2ccc(O)cc2O)c2cccc(C(F)(F)F)c21', 'N'),
  ('Oc1ccc(-c2nn(Cc3ccccc3)c3c(F)cccc23)cc1', 'N');

====

- target-system: UniProt P03372
- protocol: Creatine kinase expression (ER/CK) in Ad5-wt-hERα infected HAECT-1 cells
- condition-summary: efficacy relative to the maximal stimulation observed with E2
This listing pairs compounds with measured ER/CK % E2.
endpoint-name: ER/CK % E2 (% E2)

INSERT INTO assay_data (compound, endpoint_name, value) VALUES
  ('Cc1cc(O)ccc1-c1c2cccc(Cl)c2nn1C(C)C [Example 81]', 'ER/CK % E2', 62),
  ('CCCCCn1nc(-c2ccc(O)cc2)c2cccc(C(F)(F)F)c21 [Example 47]', 'ER/CK % E2', 26),
  ('C=CCn1nc2c(C(F)(F)F)cccc2c1-c1ccc(O)cc1C [Example 72]', 'ER/CK % E2', 46),
  ('OCCn1nc(-c2ccc(O)cc2)c2ccccc21 [Example 158]', 'ER/CK % E2', 59),
  ('Cn1nc(-c2ccc(O)c(O)c2)c2cccc(C(F)(F)F)c21 [Example 176]', 'ER/CK % E2', 70),
  ('CCCn1nc2c(-c3ccccc3)cccc2c1-c1ccc(O)cc1 [Example 110]', 'ER/CK % E2', 82),
  ('Cc1cccc2c(-c3ccc(O)cc3)n[nH]c12 [Example 34, 4-(7-methyl-1H-indazol-3-yl) phenol]', 'ER/CK % E2', 87),
  ('CCCn1nc(-c2ccc(O)cc2)c2cccc(C(F)(F)F)c21 [Example 48]', 'ER/CK % E2', 49),
  ('Cc1cc(O)ccc1-c1nn(C(C)C)c2c(-c3ccsc3)cccc12 [Example 247]', 'ER/CK % E2', 42);

Value source: patent US7241791B2
